Ref: ChEMBL document CHEMBL1153894

# Activity per record follows
- Test system: L6
- measurement-notes: Cytotoxicity against rat L6 cells
- Format: cell-based

[
  {
    "smiles-notation": "Fc1ccc(Cn2c(NC3CCN(c4ccnc5cc(Cl)ccc45)CC3)nc3ccccc32)cc1",
    "Activity, µM": 8.8
  },
  {
    "smiles-notation": "Fc1ccc(Cn2c(N3CCN(CCCNc4ccnc5cc(Cl)ccc45)CC3)nc3ccccc32)cc1",
    "Activity, µM": 6.86
  },
  {
    "smiles-notation": "Fc1ccc(Cn2c(N3CCC(Nc4ccnc5cc(Cl)ccc45)CC3)nc3ccccc32)cc1",
    "Activity, µM": 9.1
  },
  {
    "smiles-notation": "Fc1ccc(Cn2c(N3CCN(c4ccnc5cc(Cl)ccc45)CC3)nc3ccccc32)cc1",
    "Activity, µM": 126
  }
]
